solubility at 4 h values by entry
# ASSAY_COMMENT: Solubility of crystalline polymorph in biologically relevant media (water, SGF, FaSSIF, FeSSIF), HPLC of supernatant, pH, XRPD of remaining solids
# Format: physicochemical
# CONDITION_INFO: simulated gastric fluid (SGF), simulated gastric fluid, thermodynamic from solid; SGF, 37° C., 4 hr
The response must be a number in µg/mL with no trailing unit.

{"columns": ["MOLECULE", "solubility at 4 h [µg/mL]"],
 "data": [
  ["Cc1nn(-c2nc(C3=CCC(C(F)(F)F)CC3)c(SC(C)C)s2)c(C(=O)[O-])c1-c1cccc(F)c1.[Na+] (centres unmarked) [Form 11]", 100]
]}

Provide only the value of recorded solubility at 4 h for Cc1nn(-c2nc(C3=CCC(C(F)(F)F)CC3)c(SC(C)C)s2)c(C(=O)O)c1-c1cccc(F)c1 (centres unmarked) [Form 1]
30

---

Below, each entry is listed with its recorded solubility at 4 h.
# ASSAY_COMMENT: Solubility of crystalline polymorph in biologically relevant media (water, SGF, FaSSIF, FeSSIF), HPLC of supernatant, pH, XRPD of remaining solids
# Assay type: physicochemical
# CONDITION_INFO: water, thermodynamic from solid; H2O, 37° C., 4 hr
# Procedure: The solubility of crystalline polymorph Form 1 was tested in biologically relevant media: water, simulated gastric fluid (SGF), fasted state simulated intestinal fluid (FaSSIF) and fed state simulated intestinal fluid (FeSSIF). […] The supernatant concentration was measured by HPLC (Mobile phase A: 0.1% NH3 in H2O, Mobile phase B: acetonitrile; flow rate: 0.8 mL/min; injection volume: 5 μL). […]

{"columns": ["COMPOUND", "solubility at 4 h"],
 "data": [
  ["Cc1nn(-c2nc(C3=CCC(C(F)(F)F)CC3)c(SC(C)C)s2)c(C(=O)O)c1-c1cccc(F)c1 (centres unmarked) [Form 1]", "1300 µg/mL"]
]}

Next compound, please.
Return solubility at 4 h for the following compound: Cc1nn(-c2nc(C3=CCC(C(F)(F)F)CC3)c(SC(C)C)s2)c(C(=O)[O-])c1-c1cccc(F)c1.[Na+] (centres unmarked) [Form 11]
1300 µg/mL

---

# ASSAY_COMMENT: Solubility of crystalline polymorph in biologically relevant media (water, SGF, FaSSIF, FeSSIF), HPLC of supernatant, pH, XRPD of remaining solids
# Assay type: physicochemical
# CONDITION_INFO: water, thermodynamic from solid; H2O, 37° C., 24 hr
QUANTITY_NAME: solubility at 24 h (µg/mL)
All answers are understood in µg/mL, so give the number only.

{"columns": ["COMPOUND", "solubility at 24 h / µg/mL"],
 "data": [
  ["Cc1nn(-c2nc(C3=CCC(C(F)(F)F)CC3)c(SC(C)C)s2)c(C(=O)O)c1-c1cccc(F)c1 (centres unmarked) [Form 1]", 1700]
]}

// switching to the query compound
Supply solubility at 24 h value. Item: Cc1nn(-c2nc(C3=CCC(C(F)(F)F)CC3)c(SC(C)C)s2)c(C(=O)[O-])c1-c1cccc(F)c1.[Na+] (centres unmarked) [Form 11]
1200

---

# ASSAY_COMMENT: Solubility of crystalline polymorph in biologically relevant media (water, SGF, FaSSIF, FeSSIF), HPLC of supernatant, pH, XRPD of remaining solids
# Format: physicochemical
# CONDITION_INFO: simulated gastric fluid (SGF), simulated gastric fluid, thermodynamic from solid; SGF, 37° C., 1 hr
QUANTITY_NAME: solubility at 1 h (µg/mL)
API: value field is a number in µg/mL; no unit string.

{"columns": ["MOLECULE", "solubility at 1 h [µg/mL]"],
 "data": [
  ["Cc1nn(-c2nc(C3=CCC(C(F)(F)F)CC3)c(SC(C)C)s2)c(C(=O)[O-])c1-c1cccc(F)c1.[Na+] (centres unmarked) [Form 11]", 40]
]}

Note down solubility at 1 h recorded for Cc1nn(-c2nc(C3=CCC(C(F)(F)F)CC3)c(SC(C)C)s2)c(C(=O)O)c1-c1cccc(F)c1 (centres unmarked) [Form 1]
50

Data origin, for the record: patent US12378234B2
